# method notes: yeast display, Sf9 membrane polyspecificity reagent, FACS + sequencing; frameworks hold sequencing errors
reported property: polyreactivity (PSR sort gate)

Please review the following examples before continuing.
{"chain sequence": "KVQLVESGRGLVQAGGSLLLICAASGSTFVDYAMGWYRQAPGKERELVAGINVSGGSTYYSDYVKGSFTISRDNSNNPVYLQMNSLNPEDTAVYYCAKVVSNRLALPAWDYNYWGQGTKVTVSS", "obs value": "low polyreactivity"}
{"chain sequence": "QVQLVESGGGLVQAGGRLRLSCAASGRTFYGYAMGWYRQAPGKERELVASISRDGSTNYADSVNGRFTISRDNAKNTVYLQMHSLKPEDTAVYYCAADIWYYRYPIYYYSYDYWGPGTQVTVSS", "obs value": "low polyreactivity"}
{"chain sequence": "QVQLVESGGGLVQAGGSLRLSCAASGRTFPYNTMGWYRQAPGKERELVASISYRGGTYYADSVKGRFTISRDNAKNTVYLQMNSLKPEDTAVYYCNAVYYFSPSYRGYYWGQGTQVTVSS", "obs value": "high polyreactivity"}
{"chain sequence": "QVQLVESGGGLVQAGGSLRLSCAASGRTFEGNAMGWYRQAPGKERELVAAITSGGRTNYADSVKGRFTISRDNAKNTVYLQMNSLKPEDTAVYYCAAGQVSVGTIAKYDYWGQGTQVTVSS", "obs value": "low polyreactivity"}
{"chain sequence": "QVQLVESGGGLVQAGGSLRLSCAASGFTFGRYAMGWYRQAPGKERELVAAISRGGSSTYYADSVKGRFTISRDNAKNTVYLQMNSLKPEDNAVYYCNKVIIWARFDYWGQGTQVTVSS", "obs value": "high polyreactivity"}

input: Fill blank: measured polyreactivity (PSR sort gate) of the sequence `QVQLVESGGGLVQAGGSLRLSCSASGSIFWYNAMGWYRHAPGKERELVAAISRSGSRTYYADSVKGRFTISRDYAKNTVYLQMNSLKPEDTAVYYCARVRPRVLYFVLHYDYWGQGTQVTVSS` is ____.
output: high polyreactivity

input: Entry to check: `QVQLVESGGGLVQAGGSLRLSCAASGFIFWYYGMGWYRPAPGKERELVATITSGGSTTYADSVKGRFTISRDNAKNTVYLQMNSLKPEDTAVYYCAADLFYGYYSQADFEYWGQGTQVTVSS`
output: high polyreactivity

input: Entry to check: `QVQLVESGGGLVQAGGSLRLSCAASGSTFFSYAMGWYRQAPGKERELVAAITSNGGTTHYADSVKGRFTISRDNAKNTVYLQMNSLKPEDTADYYCAKAQGHVRGSRGLQGGRYDYWGQGTQVTVSS`
output: low polyreactivity

input: Entry to check: `QVQLVESGGGLVQARGSLRLSCAASGSTFGRYAMGSYRQAPGIERELVAAISLGTTTNYADSVKGRFTISRDNAKNTVYLQMNSLKPEDTAVSYCAADQPSKRYYYWGQGTQVTVSS`
output: low polyreactivity

input: Entry to check: `QVQLVESGGGLVKAGGSLRLSCAASGSTLDPNVMGWYRQAPGKERELVAAITSGGSTYYADSVKGRFTISRDNAKNTVYLQMNSLKPEDTAVYYCAADSHGHVFYSWYDYWGQGTQVTVSS`
output: low polyreactivity

input: Entry to check: `QVQLVESGGGLVQAGGSLRLSCAASGSIFVPYAMGWYRQAPGKERELVAAISSGGGRTYYADSVKGRFTISRDNAKNTVYLQMNRLKPEDTAVYYCAARYYIGYGHRTYGYDYWGQGTQVTVSS`
output: high polyreactivity
